- Test system: DU-4475 (Breast Carcinoma)
- assay-comment: combination Emax (second highest fraction inhibited in the dose matrix, 72 h); higher = more inhibition; extreme values may be limits of the assay
Overview of reported combination Emax across a group of molecules:

molecule	experimental-result
CS(=O)(=O)CCNCc1ccc(-c2ccc3ncnc(Nc4ccc(OCc5cccc(F)c5)c(Cl)c4)c3c2)o1 [Lapatinib] + C[C@@H](Oc1cc(-c2cnn(C3CCNCC3)c2)cnc1N)c1c(Cl)ccc(F)c1Cl [Crizotinib] (first compound max 10 µM, 7x7, partner max 10 µM)	0.989

[in] I'd like to know its combination Emax. The molecule in question is CN(CCO)CC[C@H](CSc1ccccc1)Nc1ccc(S(=O)(=O)NC(=O)c2ccc(N3CCC([C@@H](O)c4ccccc4-c4ccc(Cl)cc4)CC3)cc2)cc1S(=O)(=O)C(F)(F)F [AZD4320] + C=CCn1c(=O)c2cnc(Nc3ccc(N4CCN(C)CC4)cc3)nc2n1-c1cccc(C(C)(C)O)n1 [AZD1775] (first compound max 1 µM, partner max 1 µM)
[out] 1

[in] Same again, this time with Cc1c2c(nn1C)CSCc1cc(n(C)n1)CSc1cc(c3ccccc3c1)OCCCc1c(C(=O)O)n(C)c3c-2c(Cl)ccc13 [AZD5991] + Cn1cnc2c(F)c(Nc3ccc(Br)cc3Cl)c(C(=O)NOCCO)cc21 [Selumetinib] (first compound max 1 µM, 7x7, partner max 3 µM)
[out] 1

[in] Same again, this time with Cc1c2c(nn1C)CSCc1cc(n(C)n1)CSc1cc(c3ccccc3c1)OCCCc1c(C(=O)O)n(C)c3c-2c(Cl)ccc13 [AZD5991] + C=CCn1c(=O)c2cnc(Nc3ccc(N4CCN(C)CC4)cc3)nc2n1-c1cccc(C(C)(C)O)n1 [AZD1775] (first compound max 1 µM, partner max 1 µM)
[out] 0.977

[in] Same again, this time with Cc1c2c(nn1C)CSCc1cc(n(C)n1)CSc1cc(c3ccccc3c1)OCCCc1c(C(=O)O)n(C)c3c-2c(Cl)ccc13 [AZD5991] + C[C@@H]1COCCN1C2=NC(=NC(=C2)C3(CC3)[S@](=N)(=O)C)C4=C5C=CNC5=NC=C4 [AZD6738] (first compound max 1 µM, 7x7, partner max 10 µM)
[out] 0.978

[in] Same again, this time with CCN(CCO)CCCOc1ccc2c(Nc3cc(CC(=O)Nc4cccc(F)c4)[nH]n3)ncnc2c1 [AZD2811] + C=CCn1c(=O)c2cnc(Nc3ccc(N4CCN(C)CC4)cc3)nc2n1-c1cccc(C(C)(C)O)n1 [AZD1775] (first compound max 1 µM, partner max 1 µM)
[out] 0.948

[in] Same again, this time with CCc1c2c(nc3ccc(O)cc13)-c1cc3c(c(=O)n1C2)COC(=O)[C@]3(O)CC [SN-38] + CN(C)CCCOc1ccc(-c2ccc3ncc4c(c3c2)n(C2CCOCC2)c(=O)n4C)cn1 [AZD0156] (first compound max 0.3 µM, 7x7, partner max 1 µM)
[out] 0.95

[in] Same again, this time with COc1cccc(OCCCN)c1-c1cc(Nc2cnc(C#N)cn2)n[nH]1 [Prexasertib] + CN(C)CCCOc1ccc(-c2ccc3ncc4c(c3c2)n(C2CCOCC2)c(=O)n4C)cn1 [AZD0156] (first compound max 1 µM, 7x7, partner max 1 µM)
[out] 0.951

[in] Same again, this time with COc1cccc(OCCCN)c1-c1cc(Nc2cnc(C#N)cn2)n[nH]1 [Prexasertib] + O=C(c1cc(Cc2n[nH]c(=O)c3ccccc23)ccc1F)N1CCN(C(=O)C2CC2)CC1 [Olaparib] (first compound max 1 µM, 7x7, partner max 10 µM)
[out] 0.98

[in] Same again, this time with CN(C)CCCOc1ccc(-c2ccc3ncc4c(c3c2)n(C2CCOCC2)c(=O)n4C)cn1 [AZD0156] + O=C(c1cc(Cc2n[nH]c(=O)c3ccccc23)ccc1F)N1CCN(C(=O)C2CC2)CC1 [Olaparib] (first compound max 3 µM, partner max 3 µM)
[out] 0.434

[in] Same again, this time with CN(CCO)CC[C@H](CSc1ccccc1)Nc1ccc(S(=O)(=O)NC(=O)c2ccc(N3CCC([C@@H](O)c4ccccc4-c4ccc(Cl)cc4)CC3)cc2)cc1S(=O)(=O)C(F)(F)F [AZD4320] + C1CN(CCC1(C(=O)N[C@@H](CCO)C2=CC=C(C=C2)Cl)N)C3=NC=NC4=C3C=CN4 [Capivasertib] (first compound max 1 µM, 7x7, partner max 3 µM)
[out] 0.883

[in] Same again, this time with CN(CCO)CC[C@H](CSc1ccccc1)Nc1ccc(S(=O)(=O)NC(=O)c2ccc(N3CCC([C@@H](O)c4ccccc4-c4ccc(Cl)cc4)CC3)cc2)cc1S(=O)(=O)C(F)(F)F [AZD4320] + C[C@@H]1COCCN1C2=NC(=NC(=C2)C3(CC3)[S@](=N)(=O)C)C4=C5C=CNC5=NC=C4 [AZD6738] (first compound max 1 µM, 7x7, partner max 10 µM)
[out] 1

====

- Tested on: HCC1395 (Breast Carcinoma)
- assay-comment: combination Emax (second highest fraction inhibited in the dose matrix, 72 h); higher = more inhibition; extreme values may be limits of the assay
Overview of reported combination Emax across a group of molecules:
A bare number is all that is needed in reply.

These solved cases illustrate the format of a correct answer.
molecule	subject-of-test	measure	experimental-result
COc1nnc2ccc(N3CCC(c4ccc(OCCN5CCN(C)C(=O)[C@H]5C)cc4)CC3)nn12 [AZD5153] + C[C@@H]1COCCN1C2=NC(=NC(=C2)C3(CC3)[S@](=N)(=O)C)C4=C5C=CNC5=NC=C4 [AZD6738] (first compound max 1 µM, 7x7, partner max 10 µM)	HCC1395 (Breast Carcinoma)	combination Emax	0.671
Cc1cc2ncnn2cc1Nc1ncc2c(n1)n(C1CCOCC1)c(=O)n2C [AZD7648] + CN(C)CCCOc1ccc(-c2ccc3ncc4c(c3c2)n(C2CCOCC2)c(=O)n4C)cn1 [AZD0156] (first compound max 10 µM, 7x7, partner max 1 µM)	HCC1395 (Breast Carcinoma)	combination Emax	0.366
CN(CCO)CC[C@H](CSc1ccccc1)Nc1ccc(S(=O)(=O)NC(=O)c2ccc(N3CCC([C@@H](O)c4ccccc4-c4ccc(Cl)cc4)CC3)cc2)cc1S(=O)(=O)C(F)(F)F [AZD4320] + CC(=O)O[C@H]1C(=O)[C@@]2(C)[C@H]([C@H](OC(=O)c3ccccc3)[C@]3(O)C[C@H](OC(=O)[C@H](O)[C@@H](NC(=O)c4ccccc4)c4ccccc4)C(C)=C1C3(C)C)[C@]1(OC(C)=O)CO[C@@H]1C[C@@H]2O [Paclitaxel] (first compound max 1 µM, 7x7, partner max 3 µM)	HCC1395 (Breast Carcinoma)	combination Emax	0.838
Cc1c2c(nn1C)CSCc1cc(n(C)n1)CSc1cc(c3ccccc3c1)OCCCc1c(C(=O)O)n(C)c3c-2c(Cl)ccc13 [AZD5991] + CC(=O)O[C@H]1C(=O)[C@@]2(C)[C@H]([C@H](OC(=O)c3ccccc3)[C@]3(O)C[C@H](OC(=O)[C@H](O)[C@@H](NC(=O)c4ccccc4)c4ccccc4)C(C)=C1C3(C)C)[C@]1(OC(C)=O)CO[C@@H]1C[C@@H]2O [Paclitaxel] (first compound max 1 µM, 7x7, partner max 3 µM)	HCC1395 (Breast Carcinoma)	combination Emax	0.933
CCN(CCO)CCCOc1ccc2c(Nc3cc(CC(=O)Nc4cccc(F)c4)[nH]n3)ncnc2c1 [AZD2811] + C[C@@H]1COCCN1C2=NC(=NC(=C2)C3(CC3)[S@](=N)(=O)C)C4=C5C=CNC5=NC=C4 [AZD6738] (first compound max 1 µM, 7x7, partner max 10 µM)	HCC1395 (Breast Carcinoma)	combination Emax	0.785

Attention now shifts to the item below.
[in] Requested read-out combination Emax, target or system HCC1395 (Breast Carcinoma), entry CC1(C)CCC(CN2CCN(c3ccc(C(=O)NS(=O)(=O)c4ccc(NCC5CCOCC5)c([N+](=O)[O-])c4)c(Oc4cnc5[nH]ccc5c4)c3)CC2)=C(c2ccc(Cl)cc2)C1 [Venetoclax] + CN(C)CCCOc1ccc(-c2ccc3ncc4c(c3c2)n(C2CCOCC2)c(=O)n4C)cn1 [AZD0156] (first compound max 1 µM, 7x7, partner max 1 µM)
[out] 0.685

====

- Tested on: HCC1395 (Breast Carcinoma)
- assay-comment: combination Emax (second highest fraction inhibited in the dose matrix, 72 h); higher = more inhibition; extreme values may be limits of the assay
measure: combination Emax
A bare number is all that is needed in reply.

compound	combination Emax
Cc1cc2ncnn2cc1Nc1ncc2c(n1)n(C1CCOCC1)c(=O)n2C [AZD7648] + C[C@@H]1COCCN1C2=NC(=NC(=C2)C3(CC3)[S@](=N)(=O)C)C4=C5C=CNC5=NC=C4 [AZD6738] (first compound max 10 µM, 7x7, partner max 10 µM)	0.748
O=C(c1cc(Cc2n[nH]c(=O)c3ccccc23)ccc1F)N1CCN(C(=O)C2CC2)CC1 [Olaparib] + CN(CC[C@H](CSC1=CC=CC=C1)NC2=C(C=C(C=C2)S(=O)(=O)NC(=O)C3=CC=C(C=C3)N4CCC(CC4)[C@H](C5=CC=CC=C5C6=CC=C(C=C6)Cl)O)S(=O)(=O)C(F)(F)F)CCO [AZD4320] (first compound max 10 µM, 7x7, partner max 1 µM)	0.407
CCN(CCO)CCCOc1ccc2c(Nc3cc(CC(=O)Nc4cccc(F)c4)[nH]n3)ncnc2c1 [AZD2811] + O=C(c1cc(Cc2n[nH]c(=O)c3ccccc23)ccc1F)N1CCN(C(=O)C2CC2)CC1 [Olaparib] (first compound max 1 µM, 7x7, partner max 10 µM)	0.328
Cc1cc2ncnn2cc1Nc1ncc2c(n1)n(C1CCOCC1)c(=O)n2C [AZD7648] + O=C(c1cc(Cc2n[nH]c(=O)c3ccccc23)ccc1F)N1CCN(C(=O)C2CC2)CC1 [Olaparib] (first compound max 10 µM, 7x7, partner max 10 µM)	0.4
COc1cccc(OCCCN)c1-c1cc(Nc2cnc(C#N)cn2)n[nH]1 [Prexasertib] + CCc1c2c(nc3ccc(O)cc13)-c1cc3c(c(=O)n1C2)COC(=O)[C@]3(O)CC [SN-38] (first compound max 1 µM, 7x7, partner max 0.3 µM)	0.898

[in] I'd like to know its combination Emax. The compound in question is CN(CCO)CC[C@H](CSc1ccccc1)Nc1ccc(S(=O)(=O)NC(=O)c2ccc(N3CCC([C@@H](O)c4ccccc4-c4ccc(Cl)cc4)CC3)cc2)cc1S(=O)(=O)C(F)(F)F [AZD4320] + Cc1cc2ncnn2cc1Nc1ncc2c(n1)n(C1CCOCC1)c(=O)n2C [AZD7648] (first compound max 1 µM, 7x7, partner max 10 µM)
[out] 0.263

[in] Same again, this time with O=C(c1cc(Cc2n[nH]c(=O)c3ccccc23)ccc1F)N1CCN(C(=O)C2CC2)CC1 [Olaparib] + COc1nnc2ccc(N3CCC(c4ccc(OCCN5CCN(C)C(=O)[C@H]5C)cc4)CC3)nn12 [AZD5153] (first compound max 10 µM, 7x7, partner max 1 µM)
[out] 0.426
